EXPERIMENTAL_SYSTEM: glutathione-S-transferase (GST) tagged LXRbeta LBD (ligand binding domain) (Homo sapiens)
Construct: purchased Invitrogen pv4658.pps
Sequence (P55055 222-460 limits assumed): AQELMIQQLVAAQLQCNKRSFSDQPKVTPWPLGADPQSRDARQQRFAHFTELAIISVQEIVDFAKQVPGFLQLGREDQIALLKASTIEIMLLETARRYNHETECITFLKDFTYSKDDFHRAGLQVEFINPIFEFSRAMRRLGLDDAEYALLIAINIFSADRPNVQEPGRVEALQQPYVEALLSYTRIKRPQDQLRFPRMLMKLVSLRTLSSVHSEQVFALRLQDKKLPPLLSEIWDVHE
PROCEDURE_TEXT: LanthaScreen TR-FRET Liver X Receptor Coactivator Assay, co-activator recruitment to LXRbeta LBD
Format: biochemical
CONDITION_INFO: efficacy at max dose, in relation to reference dual agonist T0901317
Criterion: LXR beta Activity @ max dose (%) strictly less than 60%. Met: Y. Not met: N.

Recorded results for 4 molecules are shown here.
CN(C)C(=O)c1ccc(N2CCC(CC3CN(C(=O)[C@](O)(c4cccc(OC(F)(F)F)c4)C(F)(F)F)C3)CC2)cc1Cl | N
CN(C)C(=O)c1ccc(N2CCC(CC3CCN(C(=O)[C@](O)(c4cc(Cl)cc(Cl)c4)C(F)(F)F)CC3)CC2)nc1Cl | Y
CN(C)C(=O)c1ccc(N2CCC(CC3CCN(C(=O)[C@](O)(c4ccccc4)C(F)(F)C(F)(F)F)CC3)CC2)cc1Cl [Example 2-13] | N
COc1cccc([C@@](O)(C(=O)N2CCC(CC3CCN(c4ccc(C(=O)N(C)C)cc4)CC3)CC2)C(F)(F)F)c1 | Y

**Query** Confirm or reject: LXR beta Activity @ max dose (%) of CN(C)C(=O)c1ccc(N2CCC(OC3CCN(C(=O)[C@](O)(c4ccccc4)C(F)(F)F)CC3)CC2)cc1Cl lies strictly below 60%
**Result** N

**Query** Another molecule: CNC(=O)c1ccc(N2CCC(CC3CCN(C(=O)[C@](O)(c4ccccc4)C(F)(F)F)CC3)CC2)cc1Cl
**Result** N

###

EXPERIMENTAL_SYSTEM: glutathione-S-transferase (GST) tagged LXRbeta LBD (ligand binding domain) (Homo sapiens)
Construct: purchased Invitrogen pv4658.pps
Sequence (P55055 222-460 limits assumed): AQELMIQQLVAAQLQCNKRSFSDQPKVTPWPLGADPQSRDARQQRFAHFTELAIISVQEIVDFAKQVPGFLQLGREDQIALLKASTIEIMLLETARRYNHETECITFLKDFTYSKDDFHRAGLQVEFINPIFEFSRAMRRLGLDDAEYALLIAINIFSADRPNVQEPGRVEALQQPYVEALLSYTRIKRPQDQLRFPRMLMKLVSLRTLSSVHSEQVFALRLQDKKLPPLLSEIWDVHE
PROCEDURE_TEXT: LanthaScreen TR-FRET Liver X Receptor Coactivator Assay, co-activator recruitment to LXRbeta LBD
Type: biochemical
CONDITION_INFO: potency (Inflection Point, IP), co-activator recruitment to LXRbeta LBD, in relation to T0901317; read-out: LXR beta IP
Quick list: EC50 per entry.
Unit nM implied. Number only.

CNC(=O)c1ccc(N2CCC(CC3CCN(C(=O)[C@](O)(c4ccccc4)C(F)(F)F)CC3)CC2)nc1Cl [Example 7-141] | 13
CNC(=O)c1ccc(N2CCC(CC3CCN(C(=O)[C@](O)(c4cccc(Br)c4)C(F)(F)F)CC3)CC2)cc1Cl [Example 7-119] | 12
CCOc1cccc([C@@](O)(C(=O)N2CCC(CC3CCN(c4ccc(C(=O)N(C)C)c(Cl)c4)CC3)CC2)C(F)(F)F)c1 [Example 2-92] | 12
COc1cccc([C@@](O)(C(=O)N2CCC(CC3CCN(c4ccc(C(N)=O)c(Cl)c4)CC3)CC2)C(F)(F)F)c1 [Example 12-4] | 5
CN(C)C(=O)c1ccc(N2CCC(CC3CCN(C(=O)C(N)(c4cccc(Cl)c4)C(F)(F)F)CC3)CC2)cc1Cl (stereo not shown) [Example 2-167] | 37

**Query** For the compound shown here, COc1cccc([C@@](O)(C(=O)N2CC(CC3CCN(c4ccc(C(=O)N(C)C)c(OC)n4)CC3)C2)C(F)(F)F)c1 [Example 7-21] , give the reported EC50.
**Result** 169

**Query** Another compound: CNC(=O)c1ccc(N2CCC(CC3CCN(C(=O)[C@](O)(c4cccc(C)c4)C(F)(F)F)CC3)CC2)nc1Cl [Example 7-151]
**Result** 7
